# System: Echinochloa crus-galli
# measurementProtocol: Herbicidal activity against Echinochloa crus-galli (barnyard grass) assessed as inhibition in green house at 1500 g/ha post-emergence treatment measured after 15 days
# Assay type: functional
# assayConditions: 360 h
Would you mind labelling by inhibition at 1500 g/ha? At or over 20% is Fulfilled, under is Not fulfilled.

>  <chemSmiles>
Cc1ccc(/C(O)=C2\C(=O)CN(C(C)C)C2=O)c(C)c1

>  <measurementTarget>
Echinochloa crus-galli

>  <labelValue>
Fulfilled

$$$$
>  <chemSmiles>
COc1ccc(/C(O)=C2\C(=O)CN(C(C)C)C2=O)cc1

>  <measurementTarget>
Echinochloa crus-galli

>  <labelValue>
Fulfilled

$$$$
>  <chemSmiles>
Cc1ccc(/C(O)=C2\C(=O)CN(C(C)C)C2=O)cc1

>  <measurementTarget>
Echinochloa crus-galli

>  <labelValue>
Fulfilled

$$$$
>  <chemSmiles>
O=C1CN(C2CC2)C(=O)/C1=C(\O)c1cccc(Oc2ccccc2)c1

>  <measurementTarget>
Echinochloa crus-galli

>  <labelValue>
Not fulfilled

$$$$
>  <chemSmiles>
Cc1ccccc1/C(O)=C1\C(=O)CN(C(C)C)C1=O

>  <measurementTarget>
Echinochloa crus-galli

>  <labelValue>
Fulfilled

$$$$
>  <chemSmiles>
COc1ccccc1/C(O)=C1\C(=O)CN(C(C)C)C1=O

>  <measurementTarget>
Echinochloa crus-galli

>  <labelValue>
Fulfilled

$$$$
>  <chemSmiles>
CCOc1ccc(/C(O)=C2\C(=O)CN(C3CC3)C2=O)cc1

>  <measurementTarget>
Echinochloa crus-galli

>  <labelValue>
Not fulfilled

$$$$
>  <chemSmiles>
COc1ccc(/C(O)=C2\C(=O)CN(C3CC3)C2=O)cc1

>  <measurementTarget>
Echinochloa crus-galli

>  <labelValue>
Not fulfilled

$$$$
>  <chemSmiles>
CC(C)N1CC(=O)/C(=C(/O)c2cccc(Oc3ccccc3)c2)C1=O

>  <measurementTarget>
Echinochloa crus-galli

>  <labelValue>
Not fulfilled

$$$$
>  <chemSmiles>
COc1ccc(/C(O)=C2\C(=O)CN(C3CC3)C2=O)cc1OC

>  <measurementTarget>
Echinochloa crus-galli

>  <labelValue>
Not fulfilled

$$$$
>  <chemSmiles>
CCOc1ccc(/C(O)=C2\C(=O)CN(C(C)C)C2=O)cc1

>  <measurementTarget>
Echinochloa crus-galli

>  <labelValue>
Not fulfilled

$$$$
>  <chemSmiles>
COc1ccc(/C(O)=C2\C(=O)CN(C(C)(C)C)C2=O)cc1

>  <measurementTarget>
Echinochloa crus-galli

>  <labelValue>
Fulfilled

$$$$
